Recorded Emax by entry
# measured target: hMC4-R (Homo sapiens (Human), UniProt P32245)
# Sequence (P32245 whole entry): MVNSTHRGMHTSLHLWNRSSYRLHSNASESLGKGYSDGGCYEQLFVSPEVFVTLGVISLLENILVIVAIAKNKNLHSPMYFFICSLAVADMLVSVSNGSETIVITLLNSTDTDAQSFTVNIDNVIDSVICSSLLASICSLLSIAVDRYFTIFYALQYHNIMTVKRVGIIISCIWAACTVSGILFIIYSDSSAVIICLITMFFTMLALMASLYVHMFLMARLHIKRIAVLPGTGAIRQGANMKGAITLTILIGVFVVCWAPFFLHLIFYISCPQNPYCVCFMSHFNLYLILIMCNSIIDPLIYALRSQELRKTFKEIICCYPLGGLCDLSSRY
# assay comment: High and low density hMC4-R functional assay (cAMP, HEK293-T-REx-MC4-R cells)
# Assay type: cell-based
# measurement context: 0.1 ng/mL Doxycycline (low density hMC4-R system); NDP-α-MSH = 100%; read-out: Intrinsic Activity (%)
Give the quantity in %, number only.

molecule	measured target	endpoint unit	Emax
CC(=O)N[C@@H](CCCNC(=N)N)C(=O)N[C@H]1CCC(=O)NCCC[C@@H](C(N)=O)NC(=O)[C@H](Cc2c[nH]c3ccccc23)NC(=O)[C@H](CCCNC(=N)N)NC(=O)[C@@H](Cc2ccccc2F)NC(=O)[C@H](CCN)NC1=O [Example 9]	hMC4-R (Homo sapiens (Human), UniProt P32245)	%	91

// switching to the query molecule
Lookup: Param item = CC(=O)N[C@@H](CCCNC(=N)N)C(=O)N[C@H]1CCC(=O)NCCC[C@@H](C(N)=O)NC(=O)[C@H](Cc2c[nH]c3ccccc23)NC(=O)[C@H](CCCNC(=N)N)NC(=O)[C@@H](Cc2ccc(-c3ccccc3)cc2)NC(=O)[C@H](CCN)NC1=O [Example 29] ; retrieve measured Emax.
Found: 14

// data source = patent US9040663B2
